tested on: HCI01 (cells of a triple-negative basal-like breast cancer xenograft); test: cell viability of combination (% of vehicle); higher = less cytotoxic; conditions: 1 µM; 72 h; partner dose: 10 nM
What cell viability of combination was measured for each of the following?
Form: value (number only, do not type unit).

Recorded cell viability of combination for CCN1CCN(Cc2ccc(Nc3ncc(F)c(-c4cc(F)c5nc(C)n(C(C)C)c5c4)n3)nc2)CC1.CS(=O)(=O)O + CC(C)C[C@H](NC(=O)[C@H](CCc1ccccc1)NC(=O)CN1CCOCC1)C(=O)N[C@@H](Cc1ccccc1)C(=O)N[C@@H](CC(C)C)C(=O)[C@@]1(C)CO1 [Carfilzomib] , please?
62.7

Recorded cell viability of combination for CCCCCCCCc1ccc(CCC(N)(CO)CO)cc1.Cl [Fingolimod (FTY720)] + CC(C)C[C@H](NC(=O)[C@H](CCc1ccccc1)NC(=O)CN1CCOCC1)C(=O)N[C@@H](Cc1ccccc1)C(=O)N[C@@H](CC(C)C)C(=O)[C@@]1(C)CO1 [Carfilzomib] , please?
77.3

----------
tested on: WHIM2 (cells of a triple-negative basal-like breast cancer xenograft); experiment: cell viability (% of vehicle); higher = less cytotoxic; details: 10 µM; 72 h
Binary call on cell viability with cut-off 90: strictly below means true, and equality or higher means false.

Criterion: cell viability strictly below 90. Is it met by Cl.O.O=C1Cc2cc(CCN3CCN(c4nsc5ccccc45)CC3)c(Cl)cc2N1 [Ziprasidone hydrochloride monohydrate] ?
true

Criterion: cell viability strictly below 90. Is it met by CCOc1ccc2ccccc2c1C(=O)NC1C(=O)N2C1SC(C)(C)C2C(=O)[O-].O.[Na+] (configuration not stated) [Nafcillin Sodium] ?
false

Criterion: cell viability strictly below 90. Is it met by COc1ccccc1OCC(O)CO (configuration not stated) ?
false

Criterion: cell viability strictly below 90. Is it met by CC1CC(OC(=O)C(O)c2ccccc2)CC(C)(C)C1 (configuration not stated) [Cyclandelate] ?
false

Criterion: cell viability strictly below 90. Is it met by COC(=O)C(c1ccccc1Cl)N1CCc2sccc2C1.O=S(=O)(O)O (configuration not stated) ?
true

Criterion: cell viability strictly below 90. Is it met by COCCCOc1ccnc(C[S+]([O-])c2nc3ccccc3[nH]2)c1C (configuration not stated) [Rabeprazole] ?
false

Criterion: cell viability strictly below 90. Is it met by COc1cc(C(C)=O)ccc1OCCCN1CCC(c2noc3cc(F)ccc23)CC1 ?
false

Criterion: cell viability strictly below 90. Is it met by CN1CCC(OC(c2ccccc2)c2ccccc2)CC1.Cl [Diphenylpyraline HCl] ?
true

Criterion: cell viability strictly below 90. Is it met by O=C(O)c1ccccc1 ?
false

Criterion: cell viability strictly below 90. Is it met by O=C(O)CC(O)CC(O)C=Cc1c(C2CC2)nc2ccccc2c1-c1ccc(F)cc1 (configuration not stated) ?
false

Criterion: cell viability strictly below 90. Is it met by O=C1CCC(N2C(=O)c3ccccc3C2=O)C(=O)N1 (configuration not stated) [Thalidomide] ?
false

Criterion: cell viability strictly below 90. Is it met by O=C([O-])C(O)C(O)C(O)C(O)C(O)CO.O=C([O-])C(O)C(O)C(O)C(O)C(O)CO.[Ca+2] (configuration not stated) [Calcium Gluceptate] ?
false

Criterion: cell viability strictly below 90. Is it met by Cc1ccc(F)c(NC(=O)Nc2ccc(-c3cccc4[nH]nc(N)c34)cc2)c1 ?
false

Criterion: cell viability strictly below 90. Is it met by Cl.Clc1ccccc1CN1CCc2sccc2C1 [Ticlopidine HCl] ?
true

Criterion: cell viability strictly below 90. Is it met by CN(C)CC(c1ccc(O)cc1)C1(O)CCCCC1 (configuration not stated) ?
true

----------
system: HCI16 (cells of a triple-negative basal-like breast cancer xenograft); assay: cell viability (% of vehicle); higher = less cytotoxic; settings: 10 µM; 72 h
measured-endpoint: cell viability
Form: value (number only, do not type unit).

Form field - read-out: cell viability; system: HCI16; submitted item: CC1CC(OC(=O)C(O)c2ccccc2)CC(C)(C)C1 (stereo not drawn) [Cyclandelate]
113

Form field - read-out: cell viability; system: HCI16; submitted item: CCCCCCCCCC(=O)NC(Cc1c[nH]c2ccccc12)C(=O)NC(CC(N)=O)C(=O)NC(CC(=O)O)C(=O)NC1C(=O)NCC(=O)NC(CCCN)C(=O)NC(CC(=O)O)C(=O)NC(C)C(=O)NC(CC(=O)O)C(=O)NCC(=O)NC(CO)C(=O)NC(C(C)CC(=O)O)C(=O)NC(CC(=O)c2ccccc2N)C(=O)OC1C (stereo not drawn)
111

Form field - read-out: cell viability; system: HCI16; submitted item: CN(CC=CC#CC(C)(C)C)Cc1cccc2ccccc12
139

Form field - read-out: cell viability; system: HCI16; submitted item: CC(NCCCc1cccc(C(F)(F)F)c1)c1cccc2ccccc12 (stereo not drawn)
33.5

Form field - read-out: cell viability; system: HCI16; submitted item: C[N+]1(C)CCC(OC(=O)C(O)(c2ccccc2)C2CCCC2)C1.[Br-] (stereo not drawn) [Glycopyrrolate]
94.8

Form field - read-out: cell viability; system: HCI16; submitted item: Cn1c(=O)c2c(ncn2CC(O)CO)n(C)c1=O (stereo not drawn)
85.9

Form field - read-out: cell viability; system: HCI16; submitted item: Cc1ccc(-n2[nH]c(C)c(NN=C3C=CC=C(c4cccc(C(=O)O)c4)C3=O)c2=O)cc1C
125

Form field - read-out: cell viability; system: HCI16; submitted item: CC(CN1CC(=O)NC(=O)C1)N1CC(=O)NC(=O)C1 (stereo not drawn)
103

----------
tested on: HCI13 (cells of an ER-positive luminal breast cancer xenograft); experiment: cell viability (% of vehicle); higher = less cytotoxic; settings: 10 µM; 72 h
What cell viability was measured for each of the following?

Recorded cell viability for CC(=O)OCC(=O)NCCCOc1cccc(CN2CCCCC2)c1.Cl [Roxatidine Acetate HCl] , please?
141

Recorded cell viability for CNC1C(OC2C(OC3C(O)C(O)C(N=C(N)N)C(O)C3N=C(N)N)OC(C)C2(O)C=O)OC(CO)C(O)C1O.CNC1C(OC2C(OC3C(O)C(O)C(N=C(N)N)C(O)C3N=C(N)N)OC(C)C2(O)C=O)OC(CO)C(O)C1O.O=S(=O)(O)O.O=S(=O)(O)O.O=S(=O)(O)O (stereo not drawn) [Streptomycin sulfate] , please?
90

Recorded cell viability for N#Cc1ccc(C(c2ccc(C#N)cc2)n2cncn2)cc1 , please?
88.2

Recorded cell viability for CC(=O)Oc1ccccc1C(=O)O , please?
148

Recorded cell viability for C=C1C(=CC=C2CCCC3(C)C2CCC3C(C)CCCC(C)(C)O)CC(O)CC1O (stereo not drawn) , please?
66.4

Recorded cell viability for COC(=O)C1=C(C#N)NC(C)=C(C(=O)OC(C)C)C1c1cccc([N+](=O)[O-])c1 (stereo not drawn) , please?
138

Recorded cell viability for CC(=O)N1CCN(c2ccc(OCC3COC(Cn4ccnc4)(c4ccc(Cl)cc4Cl)O3)cc2)CC1 (single isomer, unassigned; (+)) [(+)-Ketoconazole] , please?
98.9

Recorded cell viability for NC1CCCCC1N.O=C([O-])C(=O)[O-].[Pt+2] (stereo not drawn) , please?
89

Recorded cell viability for Cc1cccc(CN2CCN(C(c3ccccc3)c3ccc(Cl)cc3)CC2)c1.Cl.Cl (stereo not drawn) [Meclizine 2HCl] , please?
52.7

Recorded cell viability for CN(C)CCC(c1ccc(Cl)cc1)c1ccccn1.O=C(O)C=CC(=O)O (stereo not drawn) [Chlorpheniramine Maleate] , please?
178

Recorded cell viability for CCCNC(C)C(=O)Nc1ccccc1C.Cl (stereo not drawn) [Prilocaine hydrochloride] , please?
83.1

Recorded cell viability for CC(C)(Oc1ccc(CCNC(=O)c2ccc(Cl)cc2)cc1)C(=O)O [Bezafibrate] , please?
97.3

Recorded cell viability for Nc1nc(Cl)nc2c1ncn2C1OC(CO)C(O)C1F (stereo not drawn) , please?
180

Recorded cell viability for CC(=O)c1cc2c(o1)C(=O)c1ccccc1C2=O , please?
46.9

Recorded cell viability for CCn1cc(C(=O)O)c(=O)c2cc(F)c(N3CCNCC3)cc21 , please?
163

Recorded cell viability for CC12C=CC(=O)NC1CCC1C2CCC2(C)C(C(=O)Nc3cc(C(F)(F)F)ccc3C(F)(F)F)CCC12 (stereo not drawn) [Dutasteride] , please?
123

Recorded cell viability for CC1C(NC(=O)C(=NOC(C)(C)C(=O)O)c2csc(N)n2)C(=O)N1S(=O)(=O)O (stereo not drawn) , please?
118

Recorded cell viability for COc1cc2nccc(Oc3ccc(NC(=O)C4(C(=O)Nc5ccc(F)cc5)CC4)cc3)c2cc1OC , please?
97.7

Recorded cell viability for CC1(C)SC2C(NC(=O)C(C(=O)[O-])c3ccccc3)C(=O)N2C1C(=O)[O-].[Na+].[Na+] (stereo not drawn) [Carbenicillin, Disodium Salt] , please?
86.7

Recorded cell viability for CC(CCC(=O)O)C1CCC2C3C(O)CC4CC(O)CCC4(C)C3CCC12C (stereo not drawn) [Chenodeoxycholic Acid] , please?
41.5

Recorded cell viability for Br.CN(C)CCC[C@]1(c2ccc(F)cc2)OCc2cc(C#N)ccc21 [Citalopram hydrobromide] , please?
103

Recorded cell viability for O=c1[nH]c(=O)n(C2CC(O)C(CO)O2)cc1F (stereo not drawn) , please?
84.4

Recorded cell viability for CC[C@@H]1/C=C(\C)C[C@H](C)C[C@H](OC)[C@H]2O[C@@](O)(C(=O)C(=O)N3CCCC[C@H]3C(=O)O[C@H](/C(C)=C/[C@@H]3CC[C@H](Cl)[C@H](OC)C3)[C@H](C)[C@@H](O)CC1=O)[C@H](C)C[C@@H]2OC , please?
56.5

Recorded cell viability for CC(Nc1ncnc2nc[nH]c12)c1cc2cccc(Cl)c2c(=O)n1-c1ccccc1 (stereo not drawn) , please?
45.8

Recorded cell viability for COc1ccc(CC2c3cc(OC)c(OC)cc3CC[N+]2(C)CCC(=O)OCCCCCOC(=O)CC[N+]2(C)CCc3cc(OC)c(OC)cc3C2Cc2ccc(OC)c(OC)c2)cc1OC.O=S(=O)([O-])c1ccccc1.O=S(=O)([O-])c1ccccc1 (stereo not drawn) [Atracurium Besylate] , please?
80.1

Recorded cell viability for O=C(CCc1ccc(O)cc1)c1c(O)cc(O)cc1OC1OC(CO)C(O)C(O)C1O (stereo not drawn) , please?
106

Recorded cell viability for CC(C)c1nc(CN(C)C(=O)NC(CCN2CCOCC2)C(=O)NC(CCC(Cc2ccccc2)NC(=O)OCc2cncs2)Cc2ccccc2)cs1 (stereo not drawn) [Cobicistat (GS-9350)] , please?
64.4

Recorded cell viability for Cl.O=C1OC(CN2CCOCC2)CN1N=Cc1ccc([N+](=O)[O-])o1 (stereo not drawn) [Furaltadone HCl] , please?
94.2
